- assay protocol: Kinetic solubility of the compound in pH 7.4 phosphate buffered saline measured after 1 hr
- Format: physicochemical
- condition label: read-out: Kinetic_solubility
quantity: solubility kinetic at 1 h (µg/mL)

Known results for molecules:
[[record]]
smiles_structure = "CCNC(=O)Nc1ccc(-c2nccc(N3CCOCC3)n2)cc1"
unit_annotation = "µg/mL"
recorded_measurement = 109

[[record]]
smiles_structure = "CNCC(=O)Nc1ccc(-c2nc(CS(C)(=O)=O)cc([C@]34CCOC[C@H]3C4)n2)cc1"
unit_annotation = "µg/mL"
recorded_measurement = 158


(A) CS(=O)(=O)Cc1cc([C@@]23CCOC[C@@H]2C3)nc(-c2cccc(O)c2)n1
(B) CCNC(=O)Nc1ccc(-c2nc(CS(C)(=O)=O)cc([C@@]34CCOC[C@@H]3C4)n2)cc1
Compare reported solubility kinetic at 1 h values for A and B . Which is lower? State your choice using its label.
B
(B: 77 µg/mL, A: 145 µg/mL)
